Listed here: items and their measured TGI.
Tested on: SK-OV-3 ovarian
Assay: NCI tumour cell line growth inhibition, 48 h

> print(dat)
                                   compound  experimentalresult
1  O=C(COc1ccc(Cl)cc1Cl)NNc1ccc([N+](=O)[O-])cc1               55 µM

Lab book: TGI of N#Cc1ccccc1C#C/C=C\C#Cc1ccccn1 noted as 76.7 µM

Lab book: TGI of CCN1C(=O)N(CC)C2C1NN=c1s/c(=C\c3ccc(Br)cc3)c(=O)n12 (stereo not drawn) noted as > 100 µM

Lab book: TGI of c1ccc2cc(Cn3c(-c4cccc5ccccc45)[n+](Cc4ccc5ccccc5c4)c4c5ccccc5c5ccccc5c43)ccc2c1 noted as 1.62 µM

Lab book: TGI of CCOC(=O)/C(C(N)=O)=C(/O)c1cnccn1 noted as > 100 µM

Lab book: TGI of CCCCCCCCC/C=C1/CC(CO)(COC(=O)C2CCCCC2)OC1=O (stereo not drawn) noted as > 100 µM

Lab book: TGI of Cc1ccc2c(c1)n([O-])c(C(F)(F)F)c(C(=O)c1ccco1)[n+]2=O noted as 7.39 µM

Lab book: TGI of CN(C)c1ccc(/C=C(\C#N)C(=O)c2ccccc2)cc1Br noted as > 100 µM

Lab book: TGI of CC1NCCC(CC(=O)O)C1CC(=O)O (stereo not drawn) noted as > 100 µM

Lab book: TGI of CN1C(=O)c2c(c3c4ccccc4n(C)c3c3c2c2ccccc2n3C)C1=O noted as > 100 µM

Lab book: TGI of S=C1NC(c2ccccc2)NC(c2ccccc2)S1 (stereo not drawn) noted as > 100 µM

Lab book: TGI of NS(=O)(=O)c1ccc(NC(=O)Nc2cccc3ccccc23)cc1 noted as > 100 µM

Lab book: TGI of CCN1CC2(CO)CCC(OC)C34C5CC6C(OC)CC(O)(C5C6OC)C(O)(C(OC)C23)C14 (stereo not drawn) noted as > 375 µM

Lab book: TGI of COc1ccc(CC2OC3(CCCCC3)CC3CCCCN32)cc1 (stereo not drawn) noted as > 100 µM

Lab book: TGI of Fc1ccc(Nc2ccnc(N3CCN(c4ccnc5cc(Cl)ccc45)CC3)n2)cc1 noted as > 100 µM
